The reported numbers originate from PubChem BioAssay (EPA / NIEHS).

Assay: APR_HepG2_CellCycleArrest_72hr: Apredica 72-hour HepG2 Assay for Cell Cycle Arrest (AID 2282914)
Details: high-content imaging, actives raise or lower the signal
Calls of active or inactive are those of the source. How the source made its calls: active means hit-call score of the fitted dose curve at least 0.9, where 1 is the maximum; inactive means score below 0.9.
Respond only with the outcome that fits, drawn from yes (1) = active, no (0) = inactive

Cn1cnc2c1c(=O)[nH]c(=O)n2C :: no (0)
NC=O :: no (0)
CC(C)c1cccc(C(C)C)c1 :: no (0)
CC(=O)[C@@]1(O)CC[C@H]2[C@@H]3CCC4=CC(=O)CC[C@]4(C)[C@H]3CC[C@@]21C :: no (0)
Cc1c(C)c2c(c(C)c1O)CCC(C)(COc1ccc(CC3SC(=O)NC3=O)cc1)O2 (stereo unspecified) :: no (0)
O=C(O)c1[nH]n(-c2ccc(S(=O)(=O)O)cc2)c(=O)c1N=Nc1ccc(S(=O)(=O)O)cc1 :: no (0)

-- ask Per the assay record, what outcome was assigned to CCCCC(CC)CO (stereo unspecified) ?
-- reply no (0)

-- ask Could you check what this test reported for `O=C(O)c1cccnc1` ?
-- reply no (0)

-- ask I would be grateful if you could indicate the recorded call for `C=CCCCCCCCCCCCC` .
-- reply no (0)

-- ask Could you check what this test reported for `Nc1nc(Cl)nc2c1ncn2[C@H]1C[C@H](O)[C@@H](CO)O1` ?
-- reply yes (1)

-- ask Recorded call for `CC(C)(C)c1ccccc1` ?
-- reply no (0)

-- ask For `CCCCCCC(C=O)=Cc1ccccc1` , what call appears in the results of this test?
-- reply yes (1)

-- ask So what was the verdict on `COC(=O)CCCC(=O)OC` in this test?
-- reply no (0)

-- ask Per the assay record, what outcome was assigned to `O=C1O[C@H]([C@H](O)CO)C(O)=C1O` ?
-- reply no (0)

-- ask Status in this test for CC(=O)OC1CC(C)OC(C)O1 (stereo unspecified) ?
-- reply no (0)

-- ask Dear all, I need the recorded test outcome for `CC(=O)O` , thank you.
-- reply yes (1)
